Field: Anti-CD28 Fab signal. Provide a value for each of the binders that follow.
Assayed target: Anti-CD28 Fab (SEQ ID NOs: 696, 697)
Sequence (VH, as listed by the source, chain 1 of 2): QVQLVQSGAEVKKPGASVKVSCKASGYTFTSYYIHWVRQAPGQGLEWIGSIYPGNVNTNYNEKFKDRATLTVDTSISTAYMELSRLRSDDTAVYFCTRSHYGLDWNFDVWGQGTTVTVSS
Sequence (VL, as listed by the source, chain 2 of 2): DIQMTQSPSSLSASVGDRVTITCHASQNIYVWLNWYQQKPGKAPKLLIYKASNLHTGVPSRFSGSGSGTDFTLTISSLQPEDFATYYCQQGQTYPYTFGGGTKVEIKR
Test description: phage binding ELISA; biotinylated Fab on neutravidin plate, bound phage detected with anti-M13-HRP
Give bare numbers.

Go through the items and report each one's Anti-CD28 Fab signal.
1. PCAAGAHYTWPTCL [Phage-1604]
2. SCAAGAAWGWPACF [Phage-1592]
3. SCSAFFHFHWPACL [Phage-1594]
4. TCSAGAAYEWPECF [Phage-1602]
5. TCAAGATWLWPVCL [Phage-1593]
6. TCSAGAGYPWPTCL [Phage-1600]
7. SCAAGATWAWPACL [Phage-1598]
8. TCSAGAEYTWPLCF [Phage-1591]

1. 1.34
2. 1.39
3. 1.38
4. 1.36
5. 1.39
6. 1.36
7. 1.36
8. 1.4
